// provenance: patent US5776718A

Ki by entry:
Biological target: cathepsin B (Homo sapiens, UniProt P07858)
Test: Inhibition of cathepsin B, fluorogenic substrate Z-Arg-Arg-AMC
Assay type: biochemical
Settings: 50 mM phosphate, pH 6.0, 2.5 mM EDTA, 2.5 mM DTT; Dixon plot; read-out: cathepsin B (Ki μM)
measure-name: Ki

>  <molecule>
CCOC(=O)CC[C@H](CCc1ccccc1)NC(=O)[C@H](Cc1ccccc1)NC(=O)N1CCOCC1 [Mu--Phe--HphγCO2 Et]

>  <reported-result>
1.6 µM

$$$$
>  <molecule>
O=C(CC[C@H](CCc1ccccc1)NC(=O)[C@H](Cc1ccccc1)NC(=O)N1CCOCC1)Nc1ccccc1 [Mu--Phe--HphγCONHPh]

>  <reported-result>
2.6 µM

$$$$
>  <molecule>
O=C(O)CCC(=O)N[C@@H](Cc1ccccc1)C(=O)N[C@@H](CCc1ccccc1)CCS(=O)(=O)c1ccccc1 [Suc--Phe--HphγSO2 Ph]

>  <reported-result>
> 1000 µM

$$$$
>  <molecule>
O=C(NC(CCc1ccccc1)S(=O)(=O)C(F)(F)F)[C@H](Cc1ccccc1)NC(=O)N1CCOCC1 (stereo partly drawn) [Mu--Phe--HphαSO2 CR3]

>  <reported-result>
50 µM

$$$$
>  <molecule>
O=C(NC(CCc1ccccc1)S(=O)(=O)Cc1ccccc1)[C@H](Cc1ccccc1)NC(=O)N1CCOCC1 (stereo partly drawn) [Mu--Phe--HphαSO2 Bzl]

>  <reported-result>
77 µM

$$$$
>  <molecule>
O=C(Cc1ccccc1)N[C@@H](Cc1ccccc1)C(=O)N[C@@H](CCc1ccccc1)CCS(=O)(=O)c1ccccc1 [Phac--Phe--HphγSO2 Ph]

>  <reported-result>
> 10 µM

$$$$
>  <molecule>
O=C(O)CCC(=O)N[C@@H](Cc1ccc2ccccc2c1)C(=O)N[C@@H](CCc1ccccc1)CCS(=O)(=O)c1ccccc1 [Suc--Np2--HphγSO2 Ph]

>  <reported-result>
> 1000 µM

$$$$
>  <molecule>
O=C(NC(CCc1ccccc1)S(=O)(=O)c1ccccc1)[C@H](Cc1ccccc1)NC(=O)N1CCOCC1 (stereo partly drawn) [Mu--Phe--(DL)HphαSO2 Ph]

>  <reported-result>
3000 µM

$$$$
>  <molecule>
COc1ccc(CC[C@H](CCc2ccccc2)NC(=O)[C@H](Cc2ccccc2)NC(=O)N2CCOCC2)cc1 [Mu--Phe--Hph-γPh--OMe]

>  <reported-result>
4.8 µM

$$$$
>  <molecule>
COC(=O)CCC(=O)N[C@@H](Cc1ccccc1)C(=O)N[C@@H](CCc1ccccc1)CCS(=O)(=O)c1ccccc1 [MeOSuc--Phe--HphγSO2 Ph]

>  <reported-result>
81 µM

$$$$
>  <molecule>
CC(C)C[C@H](NC(=O)N1CCOCC1)C(=O)NC(CCc1ccccc1)S(=O)(=O)c1ccccc1 (stereo partly drawn) [Mu--Leu--HphαSO2 Ph]

>  <reported-result>
16 µM

$$$$
>  <molecule>
O=C(O)CCC(=O)N[C@@H](Cc1ccc2ccccc2c1)C(=O)N[C@@H](CCc1ccccc1)CCS(=O)(=O)c1ccc2ccccc2c1 [Suc--Np2--HphγSO2 2Np]

>  <reported-result>
> 1000 µM

$$$$
>  <molecule>
CC(C)C[C@H](NC(=O)N1CCOCC1)C(=O)NC(CCc1ccccc1)S(=O)(=O)Cc1ccccc1 (stereo partly drawn) [Mu--Leu--HphαSO2 Bzl]

>  <reported-result>
54 µM

$$$$
>  <molecule>
O=C(NC(CCc1ccccc1)S(=O)(=O)CF)[C@H](Cc1ccccc1)NC(=O)N1CCOCC1 (stereo partly drawn) [Mu--Phe--HphαSO2 CH2 F]

>  <reported-result>
170 µM

$$$$
>  <molecule>
O=C(CCNC(=O)OCc1ccccc1)N[C@@H](Cc1ccccc1)C(=O)N[C@@H](CCc1ccccc1)CCS(=O)(=O)c1ccccc1 [Z--β-Ala--Phe--HphγSO2 Ph]

>  <reported-result>
52 µM

$$$$
